Recorded values, source patent US20190233494A1.

Reported EMax, OVCAR 5 cells (cAMP) values follow for various binders
Target under test: T1, RXFP1 receptor (endogenous, on OVCAR5 cells) (UniProt Q9HBX9 1-757, limits assumed)
T1 sequence (looked up): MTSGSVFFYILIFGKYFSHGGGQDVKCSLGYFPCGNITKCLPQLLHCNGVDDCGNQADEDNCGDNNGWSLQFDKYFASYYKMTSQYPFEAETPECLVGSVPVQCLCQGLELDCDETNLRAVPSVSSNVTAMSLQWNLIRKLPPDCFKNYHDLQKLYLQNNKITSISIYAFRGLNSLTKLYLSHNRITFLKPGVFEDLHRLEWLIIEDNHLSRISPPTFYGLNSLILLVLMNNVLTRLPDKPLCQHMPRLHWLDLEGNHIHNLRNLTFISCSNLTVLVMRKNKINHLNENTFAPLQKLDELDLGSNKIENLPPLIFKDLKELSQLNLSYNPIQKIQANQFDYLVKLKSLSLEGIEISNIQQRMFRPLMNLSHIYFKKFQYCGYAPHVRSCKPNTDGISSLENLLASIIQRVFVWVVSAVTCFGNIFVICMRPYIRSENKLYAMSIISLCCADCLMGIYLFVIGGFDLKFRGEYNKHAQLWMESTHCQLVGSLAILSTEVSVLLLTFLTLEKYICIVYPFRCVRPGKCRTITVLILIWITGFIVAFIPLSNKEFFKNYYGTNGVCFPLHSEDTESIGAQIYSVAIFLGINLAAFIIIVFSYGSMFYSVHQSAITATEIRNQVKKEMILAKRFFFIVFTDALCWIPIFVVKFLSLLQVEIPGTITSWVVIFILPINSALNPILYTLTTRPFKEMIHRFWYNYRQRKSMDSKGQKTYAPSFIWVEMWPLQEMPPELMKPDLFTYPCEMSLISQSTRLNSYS
Method: cell-based or functional assay
Starred links: 1 amine or outer side, 2 acyl side, 3 side chain; linkers in the order of their positions; H or OH if unused. Non-standard residues stand in square brackets, D forms with d. Groups on a side chain read outwards from the residue. *: point of attachment. TTDS = 4-[3-[2-[2-(3-aminopropoxy)ethoxy]ethoxy]propylamino]-4-oxo-butanoyl; γGlu = O=C(O)[C@H](CCC(=O)[*:2])N[*:1]; Stearoyl = CCCCCCCCCCCCCCCCCC(=O)*; Palmitoyl = CCCCCCCCCCCCCCCC(=O)*; αMeK = C[C@](N)(CCCCN)C(=O)O; Aib = CC(C)(N)C(=O)O
Please answer using the number first and the unit second.

Worked examples, 5 binders total:
>>> result("Ac-LEGREKVRAK(Ac)I[Aib]IEGK([TTDS-TTDS-TTDS-γGlu-γGlu-γGlu-Palmitoyl])STWS[Aib]RKK(Ac)-NH2 [peptide of SEQ ID NO: 70]")
"94%"
>>> result("Ac-LEGREKVR[Aib]K(Ac)I[Aib][Aib]EGK([TTDS-TTDS-TTDS-γGlu-γGlu-γGlu-Palmitoyl])STWS[Aib]RAK(Ac)-NH2 [peptide of SEQ ID NO: 82]")
"95%"
>>> result("Ac-LEGREKVRAK(Ac)I[Aib][Aib]EGK([TTDS-TTDS-TTDS-γGlu-γGlu-γGlu-Palmitoyl])STWS[αMeK]RAK(Ac)-NH2 [peptide of SEQ ID NO: 11]")
"93%"
>>> result("LEGREKVRAXIXXEGXSTFSXRAX (Ac-L-E-G-R-E-K-V-R-A-K(Ac)-I-Aib-Aib-E-G-K(PEG2DGA-PEG2DGA-PEG2DGA-gE-gE-gE-Palm)-S-T-F-S-Mly-R-A-K(Ac)-NH2) [peptide of SEQ ID NO: 22]")
"92%"
>>> result("Ac-LEGREKVRAK(Ac)I[Aib][Aib]EGK([TTDS-TTDS-TTDS-γGlu-γGlu-γGlu-Palmitoyl])STWK(Ac)[Aib]RAK(Ac)-NH2 [peptide of SEQ ID NO: 66]")
"93%"

Next:
Check the records and state EMax, OVCAR 5 cells (cAMP) for Ac-LEGREKVRAK(Ac)I[Aib][Aib]EGK([TTDS-TTDS-γGlu-γGlu-γGlu-Stearoyl])STWS[Aib]RKK(Ac)-NH2 [peptide of SEQ ID NO: 6] 95%
